experiment: Example 1: multiple-dose randomized 3-way crossover PK study of two IV tramadol regimens vs 100 mg oral q6h; conditions: human, plasma, iv, 50 mg, C48 (T48), 50 mg IV regimen (h 0, 2, 4, then q4h to h 44); plasma, mean
Structures can show the parent of a compound that is named as a salt.
parameter: concentration at 48 h (ng/mL)
Field: numeric (ng/mL). Do not append units.

Task: Data request, read-out concentration at 48 h, for COc1cccc([C@]2(O)CCCC[C@H]2CN(C)C)c1 (racemic) [Tramadol, hydrochloride]
Result: 448

====

assay: Example 1: multiple-dose randomized 3-way crossover PK study of two IV tramadol regimens vs 100 mg oral q6h; conditions: human, plasma, iv, 50 mg, plasma concentration, Mean, 50 mg IV Dose (h 0, 2, 4, then q4h to h 44); Time 4.50 hr
Structures can show the parent of a compound that is named as a salt.
parameter: concentration at 4.5 h (ng/mL)
Field: numeric (ng/mL). Do not append units.

Task: Data request, read-out concentration at 4.5 h, for COc1cccc([C@]2(O)CCCC[C@H]2CN(C)C)c1 (racemic) [Tramadol, hydrochloride]
Result: 592

Where do the numbers come from? From patent US10537521B2.
